# Tested on: P-gp (MDR1)
# PROTOCOL DETAILS: MDCK-MDR1 permeability assay
# Format: in vitro ADME
# ASSAY CONDITIONS: dog, MDCK-MDR1, pH 7.4, @ 5 μM, apical to basolateral, without P-gp inhibitor
REPORTED ENDPOINT: Papp A→B at 60 min, 5 μM

{"COMPOUND": "CC(C)(O)CNC(=O)Cc1nc2cnc3[nH]ccc3c2n1[C@H]1CC[C@H](CC#N)CC1 [Ex. 1]", "Papp A→B at 60 min, 5 μM": "< 0.5 ×10⁻⁶ cm/s"}

[Q] Record request: Papp A→B at 60 min, 5 μM value, item N#CCCNC(=O)Cc1nc2cnc3[nH]ccc3c2n1[C@H]1CC[C@H](CC#N)CC1 [Ex. 4]
[A] 0.1 ×10⁻⁶ cm/s

* * *

This section presents molecules with their documented IC50 values.
# TEST TARGET: JAK2-JH1JH2 (Homo sapiens (Human), UniProt O60674)
# Sequence (O60674 532-1132): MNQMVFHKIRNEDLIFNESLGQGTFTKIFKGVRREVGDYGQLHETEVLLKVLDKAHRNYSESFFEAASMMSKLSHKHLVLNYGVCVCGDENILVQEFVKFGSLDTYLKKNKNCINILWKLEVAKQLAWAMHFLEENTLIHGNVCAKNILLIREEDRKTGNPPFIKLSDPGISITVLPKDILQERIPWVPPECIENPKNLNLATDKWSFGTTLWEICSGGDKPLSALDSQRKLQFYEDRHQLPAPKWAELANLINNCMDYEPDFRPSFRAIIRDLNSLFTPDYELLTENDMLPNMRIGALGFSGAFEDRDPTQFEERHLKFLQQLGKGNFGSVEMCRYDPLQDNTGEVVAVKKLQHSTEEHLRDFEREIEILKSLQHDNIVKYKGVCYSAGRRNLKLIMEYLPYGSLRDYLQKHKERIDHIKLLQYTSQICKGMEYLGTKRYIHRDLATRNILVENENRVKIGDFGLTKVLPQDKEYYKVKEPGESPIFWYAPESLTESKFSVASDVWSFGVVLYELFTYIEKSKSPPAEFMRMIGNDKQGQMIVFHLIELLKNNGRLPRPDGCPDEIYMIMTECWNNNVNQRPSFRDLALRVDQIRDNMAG
# PROTOCOL DETAILS: Enzymatic inhibition assay (RapidFire HTMS), JAK2
# Format: biochemical
# ASSAY CONDITIONS: 30 μM ATP, 40 μM substrate
Give a bare numeral; the unit nM is implied.

{"MOLECULE": "CC(C)(O)CNC(=O)Cc1nc2cnc3[nH]cc(Cl)c3c2n1[C@H]1CC[C@H](CC#N)CC1 [Ex. 188]", "READING": 36.7}
{"MOLECULE": "[H]/N=C(\\c1ccccc1)N(O)Cc1nc2cnc3[nH]ccc3c2n1[C@H]1CC[C@H](CC#N)CC1 [Ex. 17A]", "READING": 1.2}
{"MOLECULE": "C[Si](C)(C)CNC(=O)Cc1nc2cnc3[nH]ccc3c2n1[C@H]1CC[C@H](CC#N)CC1 [Ex. 99]", "READING": 30.9}
{"MOLECULE": "COC1CCN(C(=O)c2nc3cnc4[nH]ccc4c3n2[C@H]2CC[C@H](CC#N)CC2)CC1 [Ex. 176]", "READING": 157}
{"MOLECULE": "N#CC[C@H]1CC[C@H](n2c(CN/C(=N\\O)C3CC3)nc3cnc4[nH]ccc4c32)CC1 [Ex. 110]", "READING": 29}

[Q] Could you tell me which IC50 is on file for N#CC[C@H]1CC[C@H](n2c(C(=O)N3CCC(O)CC3)nc3cnc4[nH]ccc4c32)CC1 [Ex. 181] ?
[A] 331

[Q] Would you mind doing N#CC[C@H]1CC[C@H](n2c(-c3ccc(C(=O)c4ccccc4)cc3)nc3cnc4[nH]ccc4c32)CC1 [Ex. 92] as well?
[A] 11.7

[Q] // next record N#CC[C@H]1CC[C@H](n2c(C(=O)N3CCC(O)(c4ccccn4)CC3)nc3cnc4[nH]ccc4c32)CC1 [Ex. 88]
[A] 43.4

[Q] Now the molecule N#CC[C@H]1CC[C@H](n2c(Cn3c(-c4ccccc4)noc3=O)nc3cnc4[nH]ccc4c32)CC1 [Ex. 203]
[A] 152

* * *

# TEST TARGET: JAK3-JH1JH2 (Homo sapiens (Human), UniProt P52333)
# Sequence (P52333 512-1124): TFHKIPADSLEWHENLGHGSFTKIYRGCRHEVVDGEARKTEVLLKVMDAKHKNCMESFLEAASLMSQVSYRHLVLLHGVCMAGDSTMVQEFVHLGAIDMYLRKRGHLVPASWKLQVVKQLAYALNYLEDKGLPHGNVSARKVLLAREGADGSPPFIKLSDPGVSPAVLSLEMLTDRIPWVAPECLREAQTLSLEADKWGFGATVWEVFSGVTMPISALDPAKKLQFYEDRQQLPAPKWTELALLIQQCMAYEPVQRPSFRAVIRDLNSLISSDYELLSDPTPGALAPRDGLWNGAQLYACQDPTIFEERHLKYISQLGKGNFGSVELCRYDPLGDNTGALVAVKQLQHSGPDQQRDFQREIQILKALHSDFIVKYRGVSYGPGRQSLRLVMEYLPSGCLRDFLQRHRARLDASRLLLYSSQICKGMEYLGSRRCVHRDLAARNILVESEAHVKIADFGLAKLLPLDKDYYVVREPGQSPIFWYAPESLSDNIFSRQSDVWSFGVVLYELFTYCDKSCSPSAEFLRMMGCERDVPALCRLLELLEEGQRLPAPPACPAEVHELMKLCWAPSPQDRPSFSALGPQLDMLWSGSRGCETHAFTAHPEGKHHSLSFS
# PROTOCOL DETAILS: Enzymatic inhibition assay (RapidFire HTMS), JAK3
# Format: biochemical
# ASSAY CONDITIONS: 150 μM ATP, 40 μM substrate
Measured pIC50, listed per entry.
Scale for pIC50: -log10 of concentration given in mol/L; no unit attached.

{"INPUT SMILES": "N#CC[C@H]1CC[C@H](n2c(CC(=O)NCc3ccc(OC(F)F)cc3)nc3cnc4[nH]ccc4c32)CC1", "READING": 6.65}
{"INPUT SMILES": "CN1CCC(NC(=O)c2nc3cnc4[nH]ccc4c3n2[C@H]2CC[C@H](CC#N)CC2)CC1", "READING": 5.95}

[Q] Which pIC50 reading was recorded for the molecule "C#Cc1ccc(C(=O)c2ccc(COCc3nc4cnc5[nH]ccc5c4n3[C@H]3CC[C@H](CC#N)CC3)cc2)cc1" ?
[A] 6.50

[Q] Please do the same for "N#CC[C@H]1CC[C@H](n2c(CN/C(=N/O)C3CCCCC3)nc3cnc4[nH]ccc4c32)CC1" as well.
[A] 6.37

[Q] Field entry: "N#CC[C@H]1CC[C@H](n2c(CC(=O)N3CCC[C@@H]3CO)nc3cnc4[nH]ccc4c32)CC1"
[A] 6.03

[Q] Next molecule up: "N#CC[C@H]1CC[C@H](n2c(Cc3cscn3)nc3cnc4[nH]ccc4c32)CC1"
[A] 7.70

[Q] What about "N#CC[C@H]1CC[C@H](n2c(CC(=O)N3CCC(C(F)(F)F)CC3)nc3cnc4[nH]ccc4c32)CC1" ?
[A] 7.31
